Measured values drawn from patent US12582721B2 for this set.

Test system: healthy Madin-Darby canine kidney epithelial cells of the MDCK line
Assay: Resazurin cell proliferation test, MDCK cells
Assay type: cell-based
Details: healthy cells; IC50 equal to and greater than 100 μM considered no activity
pIC50: −log10 of the molar value.
Each entry below lists one item and its recorded pIC50 value.

[
  {
    "compound": "O=C([O-])CN(CCN(CC(=O)[O-])CC(=O)[O-])CC(=O)[O-].[O]=[Mo+]12[O][Mo+]1(=[O])[O]2.c1ccc([P+](c2ccccc2)(c2ccccc2)c2ccccc2)cc1.c1ccc([P+](c2ccccc2)(c2ccccc2)c2ccccc2)cc1 [PPh4—Mo2O4-EDTA, (PPh4)2[Mo2O4 (EDTA)]·2.5H2O]",
    "experimental system": "healthy Madin-Darby canine kidney epithelial cells of the MDCK line",
    "comparison sign": "=",
    "pIC50": 4.22
  },
  {
    "compound": "N.N.[Cl][Pt][Cl] [Cisplatin, reference compound]",
    "experimental system": "healthy Madin-Darby canine kidney epithelial cells of the MDCK line",
    "comparison sign": "=",
    "pIC50": 4.51
  },
  {
    "compound": "O=C([O-])CN(CCN(CC(=O)[O-])CC(=O)[O-])CC(=O)[O-].[O]=[Mo+]12[S][Mo+]1(=[O])[S]2.c1ccc([P+](c2ccccc2)(c2ccccc2)c2ccccc2)cc1.c1ccc([P+](c2ccccc2)(c2ccccc2)c2ccccc2)cc1",
    "experimental system": "healthy Madin-Darby canine kidney epithelial cells of the MDCK line",
    "comparison sign": "≤",
    "pIC50": 4.00
  }
]

---

Each entry below lists one item and its recorded Degree of infestation with Varroa, change versus batch I value.
System: Varroa destructor
Assay: 1st test in hives: degree of infestation with Varroa
Type: in vivo
Conditions: overall dose 2 mg per colony; value in brackets
endpoint name: Degree of infestation with Varroa, change versus batch I (%)

[
  {
    "molecule": "O=C([O-])CN(CCN(CC(=O)[O-])CC(=O)[O-])CC(=O)[O-].[O]=[Mo+]12[O][Mo+]1(=[O])[O]2.c1ccc([P+](c2ccccc2)(c2ccccc2)c2ccccc2)cc1.c1ccc([P+](c2ccccc2)(c2ccccc2)c2ccccc2)cc1 [PPh4—Mo2O4-EDTA, (PPh4)2[Mo2O4 (EDTA)]·2.5H2O]",
    "unit of measure": "%",
    "reported measurement": "−21.3"
  },
  {
    "molecule": "O.O.O.O.O.O=C([O-])CN(CCN(CC(=O)[O-])CC(=O)[O-])CC(=O)[O-].[Na+].[Na+].[O]=[Mo+]12[O][Mo+]1(=[O])[O]2 [Na—Mo2O4-EDTA, Na2[Mo2O4 (EDTA)]·5H2O]",
    "unit of measure": "%",
    "reported measurement": "−13.5"
  },
  {
    "molecule": "O.O.O.O.O.O.O=C([O-])CN(CCN(CC(=O)[O-])CC(=O)[O-])CC(=O)[O-].[Li+].[Li+].[O]=[Mo+]12[O][Mo+]1(=[O])[O]2 [Li—Mo2O4-EDTA, Li2[Mo2O4 (EDTA)]·6H2O]",
    "unit of measure": "%",
    "reported measurement": "−42.7"
  },
  {
    "molecule": "CC(=O)[O-].[Li+] [Li—Ac, LiCH3COO·H2O, reference compound]",
    "unit of measure": "%",
    "reported measurement": "−41.6"
  }
]
